test system: Vero E6 infected with SARS-CoV-2; assay: morphology score (similarity to uninfected cells); higher = more like uninfected cells; settings: 24 h
MEASUREMENT_NAME: morphology score

[[record]]
compound = "CO[C@H]1CC[C@@H](C(=O)c2ccc3nc4c(cc3c2)CCCO4)CC1 (10 µM)"
observed_result = 0.0672

[[record]]
compound = "O=C(O[C@H]1C[C@H]2CC[C@@H](C1)[N+]21CCCC1)C(O)(c1ccccc1)c1ccccc1 [trospium] (10 µM)"
observed_result = 0.0583


Entry under review: CCCCNc1nc(N)c2[nH]c(=O)n(Cc3ccc(OCCN(C)C)nc3)c2n1 (10 µM) . Reported morphology score?
0.0113

For the compound shown here, CN(C)CCC=C1c2ccccc2CCc2ccccc21 [amitriptyline] (10 µM) , give the reported morphology score.
0.0472

Tell me the measured morphology score of O=c1[nH]c(=O)n([C@H]2C[C@H](O)[C@@H](CO)O2)cc1/C=C/Br [brivudine] (10 µM) , please.
0.0102

// morphology score lookup, key: CN1CCN(c2c(F)cc3c(=O)c(C(=O)O)cn(CCF)c3c2F)CC1 [fleroxacin] (10 µM)
-0.043

Given the compound CN1CCN(CCc2ccc(Cl)c(Cl)c2)CC1 (10 µM) , what is its reported morphology score?
0.156
